# maps each entry to its IC50
- Target Of Assay: leukotriene receptor
- Measurement Notes: leukotriene receptor binding assay (RBL-1)
- Test Conditions: Bruns et al
Give the quantity in µM, number only.

Example results:
Line Notation	Endpoint Unit	IC50
CCCCCCN1C(=O)C(=CC(=O)O)SC1=Nc1ccccc1	µM	39.2
CCCCCN=C1SC(=CC(=O)O)C(=O)N1CCCCC	µM	15.4
O=C(O)C=C1SC(=Nc2cc(Cl)c(Cl)c(Cl)c2)N(c2cc(Cl)c(Cl)c(Cl)c2)C1=O	µM	13.1
O=C(O)C=C1SC(=Nc2ccc(Br)c(Br)c2)N(c2ccc(Br)c(Br)c2)C1=O	µM	18.9
O=C(O)C=C1SC(=Nc2ccc(Cl)c(Cl)c2)N(c2ccc(Cl)c(Cl)c2)C1=O	µM	15.6

Sample "CCCCCCCN=C1SC(=CC(=O)O)C(=O)N1CCCCCCC" , system: leukotriene receptor. Its IC50 is 12.7
